- Test system: E. cloacae GC 3783
- TEST SUMMARY: In vitro MIC, broth dilution
- Format: cell-based
- CONDITION: Enterobacter cloacae, GC3783
OBSERVABLE: MIC

[[record]]
compound = "COc1ccc(Cn2c(=O)ccn([C@@H]3OC([C@H](O)[C@H](NCCCNC(=O)[C@@H](NC(=O)OCc4ccccc4)[C@H](C)O)C(=O)OC(C)(C)C)[C@@H](O[Si](C)(C)C(C)(C)C)[C@H]3O[Si](C)(C)C(C)(C)C)c2=O)cc1 (stereo partly shown)"
tested_system = "E. cloacae GC 3783"
observable = "MIC"
result = "> 128 µg/mL"

[[record]]
compound = "COc1ccc(Cn2c(=O)ccn([C@@H]3OC([C@H](O)[C@H](NCCCNC(=O)C(NC(=O)[C@H](CCCNC(=N)N[N+](=O)[O-])NC(=O)N[C@H](C(=O)OCc4ccccc4)C(C)C)[C@@H](C)O)C(=O)OC(C)(C)C)[C@@H](O[Si](C)(C)C(C)(C)C)[C@H]3O[Si](C)(C)C(C)(C)C)c2=O)cc1 (stereo partly shown)"
tested_system = "E. cloacae GC 3783"
observable = "MIC"
result = "128 µg/mL"

[[record]]
compound = "COc1ccc(Cn2c(=O)ccn([C@@H]3OC([C@H](O)[C@H](NCCCNC(=O)[C@H](CC(C)C)NC(=O)[C@H](CCCNC(=N)N)NC(=O)N[C@H](C(=O)O)C(C)C)C(=O)OC(C)(C)C)[C@@H](O[Si](C)(C)C(C)(C)C)[C@H]3O[Si](C)(C)C(C)(C)C)c2=O)cc1 (stereo partly shown)"
tested_system = "E. cloacae GC 3783"
observable = "MIC"
result = "128 µg/mL"

[[record]]
compound = "COc1ccc(Cn2c(=O)ccn([C@@H]3OC([C@H](O)[C@H](NCCCNC(=O)[C@H](CCCCNC(=O)OCc4ccccc4)NC(=O)OCc4ccccc4)C(=O)OC(C)(C)C)[C@@H](O[Si](C)(C)C(C)(C)C)[C@H]3O[Si](C)(C)C(C)(C)C)c2=O)cc1 (stereo partly shown)"
tested_system = "E. cloacae GC 3783"
observable = "MIC"
result = "> 128 µg/mL"

[[record]]
compound = "COc1ccc(Cn2c(=O)ccn([C@@H]3OC([C@H](O)[C@H](NCCCNC(=O)[C@H](CCC(=O)OC(C)(C)C)NC(=O)OCc4ccccc4)C(=O)OC(C)(C)C)[C@@H](O[Si](C)(C)C(C)(C)C)[C@H]3O[Si](C)(C)C(C)(C)C)c2=O)cc1 (stereo partly shown)"
tested_system = "E. cloacae GC 3783"
observable = "MIC"
result = "> 128 µg/mL"

[[record]]
compound = "COc1ccc(Cn2c(=O)ccn([C@@H]3OC([C@@H](O)[C@H](NCCCNC(=O)C(NC(=O)OCc4ccccc4)[C@@H](O)C(C)C)C(=O)OC(C)(C)C)[C@@H](O[Si](C)(C)C(C)(C)C)[C@H]3O[Si](C)(C)C(C)(C)C)c2=O)cc1 (stereo in doubt)"
tested_system = "E. cloacae GC 3783"
observable = "MIC"
result = "> 128 µg/mL"


In the following, a different compound is considered.
Challenge: // lookup MIC for COc1ccc(Cn2c(=O)ccn([C@@H]3OC([C@H](O)[C@H](NCCCNC(=O)[C@H](CC(C)C)NC(=O)[C@H](CCCNC(=N)N[N+](=O)O)NC(=O)N[C@H](C(=O)OCc4ccccc4)C(C)C)C(=O)OC(C)(C)C)[C@@H](O[Si](C)(C)C(C)(C)C)[C@H]3O[Si](C)(C)C(C)(C)C)c2=O)cc1 (stereo partly shown)
Response given: > 128 µg/mL
